- ASSAYED_TARGET: human vasopressin V1a receptor (Homo sapiens)
- Sequence (P37288 whole entry): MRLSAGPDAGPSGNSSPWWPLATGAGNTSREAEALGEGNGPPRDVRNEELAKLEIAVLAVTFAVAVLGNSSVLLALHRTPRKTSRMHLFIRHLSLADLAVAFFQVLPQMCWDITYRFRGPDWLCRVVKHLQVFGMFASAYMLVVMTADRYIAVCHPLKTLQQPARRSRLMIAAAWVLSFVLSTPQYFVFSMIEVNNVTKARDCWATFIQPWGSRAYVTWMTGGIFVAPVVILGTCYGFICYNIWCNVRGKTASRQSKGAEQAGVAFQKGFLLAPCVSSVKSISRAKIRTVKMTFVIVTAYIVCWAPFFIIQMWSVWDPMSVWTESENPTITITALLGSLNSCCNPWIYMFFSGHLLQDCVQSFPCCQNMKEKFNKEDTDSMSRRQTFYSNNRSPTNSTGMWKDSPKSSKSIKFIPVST
- METHOD_NOTES: Vasopressin V1a receptor binding assay
- REPORTED_CONDITIONS: selectivity for human V1b over human V1a, quotient of binding constants
ENDPOINT: Ki(h-V1a)/Ki(h-V1b)

CCOc1ncccc1[C@]1(NC(=O)N2CC3(CN(CCN4CCOCC4)C3)C2)C(=O)N(S(=O)(=O)c2ccc(OC)cn2)c2ccc(C#N)cc21
+++ (>75)
CCOc1ncccc1[C@]1(NC(=O)N2CC3(C2)CN(C2CCN(C(C)C)CC2)C3)C(=O)N(S(=O)(=O)c2ccc(C#N)cc2)c2ccc(C#N)cc21
+++ (>75)
CCOc1ncccc1[C@]1(NC(=O)C2CC3(C2)CN(C2CN(C)C2)C3)C(=O)N(S(=O)(=O)c2ccc(OC)cc2)c2ccc(C#N)cc21
+ (10-<25)
CCOc1ncccc1[C@]1(NC(=O)N2CC3(CN(CCN4CCCCC4)C3)C2)C(=O)N(S(=O)(=O)c2ccc(OC)cc2)c2ccc(C#N)cc21
++ (25-75)
CCOc1ncccc1[C@]1(NC(=O)C2CC3(C2)CN(C2CCN(C(C)C)CC2)C3)C(=O)N(S(=O)(=O)c2ccc(OC)cc2)c2ccc(C#N)cc21
+ (10-<25)
CCOc1ncccc1[C@]1(NC(=O)N2CC3(CN(CCN4CCOCC4)C3)C2)C(=O)N(S(=O)(=O)c2ccc(C)cc2)c2ccc(C#N)cc21
++ (25-75)
CCOc1ccccc1[C@]1(NC(=O)N2CC3(C2)CN(C2CCN(C(C)C)CC2)C3)C(=O)N(S(=O)(=O)c2ccc(F)cc2)c2ccc(C#N)cc21.O=C(O)C(F)(F)F [Example 43B]
+++ (>75)
CCOc1ncccc1[C@]1(NC(=O)N2CC3(CN(CCN4CCOCC4)C3)C2)C(=O)N(S(=O)(=O)c2ccc(OC)cc2OC)c2ccc(C#N)cc21 [Example 15]
+++ (>75)
CCOc1ncccc1C1(CC(=O)N2CC3(CN(CCN4CCOCC4)C3)C2)C(=O)N(S(=O)(=O)c2ccc(OC)cc2)c2ccc(C#N)cc21 (single isomer, unassigned) [Example 20A]
++ (25-75)
CCOc1ncccc1[C@]1(NC(=O)N2CC3(CN(CCN4CCOCC4)C3)C2)C(=O)N(S(=O)(=O)c2ccc(C)cc2)c2ccc(C#N)cc21.O=C(O)C(F)(F)F
++ (25-75)
CCOc1ncccc1[C@]1(NC(=O)N2CC3(CN(CCN4CCOCC4)C3)C2)C(=O)N(S(=O)(=O)c2ccc(F)cc2)c2ccc(C#N)cc21
++ (25-75)
CCOc1ncccc1[C@]1(NC(=O)N2CC3(CN(CCN4CCOCC4)C3)C2)C(=O)N(S(=O)(=O)c2ccccc2OC)c2ccc(C#N)cc21
+++ (>75)

====

- ASSAYED_TARGET: human vasopressin V1b receptor (Homo sapiens)
- Sequence (P47901 whole entry): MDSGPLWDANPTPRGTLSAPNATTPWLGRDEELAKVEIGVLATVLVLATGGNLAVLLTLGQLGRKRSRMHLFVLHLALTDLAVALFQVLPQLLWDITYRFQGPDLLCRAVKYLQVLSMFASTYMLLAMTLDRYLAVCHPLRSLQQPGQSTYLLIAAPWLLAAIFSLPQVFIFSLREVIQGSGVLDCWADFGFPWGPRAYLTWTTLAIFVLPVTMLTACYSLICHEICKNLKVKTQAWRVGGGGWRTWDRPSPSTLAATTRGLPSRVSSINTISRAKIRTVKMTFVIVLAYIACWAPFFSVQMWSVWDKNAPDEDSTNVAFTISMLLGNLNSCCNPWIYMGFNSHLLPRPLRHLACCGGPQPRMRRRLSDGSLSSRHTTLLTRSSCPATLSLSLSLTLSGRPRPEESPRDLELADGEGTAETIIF
- METHOD_NOTES: biochemical
- REPORTED_CONDITIONS: Ki(h-V1b)* [nM], CHO-K1 cell membranes, displacement of 3H-AVP
ENDPOINT: Ki

CCOc1ncccc1[C@]1(NC(=O)N2CC3(CN(CCN(CC)CC)C3)C2)C(=O)N(S(=O)(=O)c2ccc(OC)cc2)c2ccc(C#N)cc21 [Example 9]
1 to 10 nM
CCOc1ncccc1C1(NC(=O)N2CC3(CCNCC3)C2)C(=O)N(S(=O)(=O)c2ccc(OC)cc2OC)c2ccc(C#N)cc21.O=C(O)C(F)(F)F (stereo not drawn) [Example 60, 2,2,2-trifluoroacetate]
1 to 10 nM
CCOc1ncccc1C1(NC(=O)N2CCC3(CCN(CC)CC3)CC2)C(=O)N(S(=O)(=O)c2ccc(OC)cc2OC)c2ccc(C#N)cc21 (stereo not drawn) [Example 56, 2,2,2-trifluoroacetate]
10 to 100 nM
